# Tested on: MS2 coat protein
# EXPERIMENTAL_PROTOCOL: apparent KD of MS2 coat protein; higher = weaker reporter binding
# ASSAY_SETUP: Eterna round: R107; input ligand: theophylline 20 uM
Reported apparent KD of MS2 coat protein values are given for each entry in this list.
Field: numeric (nM). Do not append units.

Answered cases to consult:
The sequence listed as GAAGCUCGCGAUGAUACCAGCUCGACUGAUAACAUGAGGAUCACCCAUGUUGUGCGCCCUAGCCCUUGGCAGCAUGACAUAUUCG [theeternabot_sameState_MS2_Theo_B_46] shows apparent KD of MS2 coat protein equal to 126

The sequence listed as AGCGACAUGCGUGAUACCAGCUACAUGAGGAUCACCCAUGUGAGUAGGAAACUACUGUGUAGCCCUUGGCAGCACAGUGCAUGUC [Exclusion - Theophylline B (Freestyle 25)] shows apparent KD of MS2 coat protein equal to 15.9

The sequence listed as `GGGUACAUCGCGGCCGCCACUUGUGUAAAUACAUGAGGAUCACCCAUGUCGAUGGAGACAUCGGAGAGGACCGGGUGAUGUACCG` shows apparent KD of MS2 coat protein equal to 122

The sequence listed as UAAUGCAGGUCGGCCGCCACUACACACAUGAGGAUCACCCAUGUAGUUACUGGGUGAAGUGGCAGUAGGACCGGGACCUGCAUAA [Brourd01] shows apparent KD of MS2 coat protein equal to 467

The sequence listed as CCUCGGGACCGAAGGAGCGAGAUAACAACAAUGGGUCUCUACACAUGAGGAUCACCCAUGUCUCAGGUAGGUCGCGGUACCUUAG [Exclusion Arginine B GF23] shows apparent KD of MS2 coat protein equal to 287

Further cases:
The sequence listed as AGAACAAAACUAAAUAAACAACUGGGUGAUACCAGCACAUGUGCGUGCCCUUGGCAGCAUCCGGCCACAUGAGGAUCACCCAUGU [Inarar] shows apparent KD of MS2 coat protein equal to 95.6

The sequence listed as AGCUCGCAUCCUCAAAGCGUCAAAGACGCACGAGGACCGGUACGGCCGCCACUCGACCUGAGGAUCACCCUGGUCUAAGCGAGCA [TrypAX 9 #SwitchBubble #AlternativeMS2 #MS2Late #CuTurnoff] shows apparent KD of MS2 coat protein equal to 49.2

The sequence listed as CUCCCGUGGUCGGCCGCCACUGGAGGCCUCGCGCGACAUGAGGAUCACCCAUGUUGGCCCGGCCUCAGGACCGGGAUCGCGUGAG [#1 Same State - Tryptophan B Attempt #7 (HarryS)] shows apparent KD of MS2 coat protein equal to 17.9

The sequence listed as UUAUUUAACGGAAGGAGCGCGGAAUAAUAAGUGGGUAAACAUGAGGAUCACCCAUGUAAACCGCAGGUAGGUCGCCGAUAUUUAU [AstrosEXyARgB#3] shows apparent KD of MS2 coat protein equal to 88.9

The sequence listed as AACCGAGGCUAUCCACAAAGAAAAUGUGAUACCAGAAUAAUUUUAUUCCCUUGGCAGCAUGACAUGAGGAUCACCCAUGUGUCUU [SSTheo A #5] shows apparent KD of MS2 coat protein equal to 39.8

The sequence listed as AUAACAUGAGGAUCACCCAUGUAAGCUGAAGGAGCGGACGAAAGUCCAGGUAGGUCGCAGCACUCCUUCAACAUGGGAGAGGGAG [(M1)-(M2)-(Arg1)-(Arg2)-(A)'-(M)'-(A)''_Design1] shows apparent KD of MS2 coat protein equal to 59.8

The sequence listed as ACAUGAGGAUCACCCAUGUACAUCACCCGACGAGGACCGGUACGGCCGCCACUCGGGUAUAUAUUUACAUCGGGUGAUUUUACGU [#23 Tryptophan A Same State] shows apparent KD of MS2 coat protein equal to 81.2

The sequence listed as AACAUGAGGAUCACCCAUGUCCCAUGUGAACGAGGACCGGUACGGCCGCCACUCGAAUAAGGCGGCACAUGAGGAUCACCCACAU [AstrosSSTry#1] shows apparent KD of MS2 coat protein equal to 223

The sequence listed as CGGUUUGUGAUGGAUACCAGCAGAGAAAAUGUUUAUCCUAACAUGAGGAUCACCCAUGUAUGCCCUUGGCAGCUGUUGUGGGCUG [8.V] shows apparent KD of MS2 coat protein equal to 80.4

The sequence listed as UUUAUAUAGACGGCCGCCACUGGAAUUAAUACAUGAGGAUCACCCAUGUAUAGAGAAUAAUAAUACAGGACCGGGUCUUCAUGAU [SS Tryp B Tesla 1.1] shows apparent KD of MS2 coat protein equal to 34.2

The sequence listed as GUCCGACAUGAGGAUCACCCAUGUACUGAAGGAGCGGACAAAUGUCCAGGUAGGUCGCAGCUAUAUGGUGUGGACCGAUCCGGAC [Ustius] shows apparent KD of MS2 coat protein equal to 27.2

The sequence listed as CGAGUAGGUUCAAUCGAAUAACGGUUUUCGCGAGGACCGGUACGGCCGCCACUCGUGUGAUAUCACACAUGAGGAUCACCCAUGU [3'end-1] shows apparent KD of MS2 coat protein equal to 49.2

The sequence listed as UUAAGAGGCUAUCAAAUUUGAUUUUGUGAUACCAGAAUAAUUUUAUUCCCUUGGCAGCAUGACAUGAGGAUCACCCAUGUGUCUU [SSTheo A #2] shows apparent KD of MS2 coat protein equal to 40.2

The sequence listed as UUUUUUAUCAUGGCGUAUCGGAAAACCGAUACCAGUACAGAAAUGUACCCUUGGCAGCGGCGUUUUACAUGAGGAUCACCCAUGU [Ex Theophylline A 4] shows apparent KD of MS2 coat protein equal to 23.7

The sequence listed as GGUAUAUAGGCGGCCGCCACUGAUUUUCAUAUAUAUAUAACAUGAGGAUCACCCAUGUAGAUAUACAGGACCGGGCCUAUAUAUU [aaaC] shows apparent KD of MS2 coat protein equal to 17.7
